# target desc: Human TDO (hTDO)-transfected CHO-K1 cells (Homo sapiens (Human), UniProt P48775)
# Sequence (P48775 whole entry): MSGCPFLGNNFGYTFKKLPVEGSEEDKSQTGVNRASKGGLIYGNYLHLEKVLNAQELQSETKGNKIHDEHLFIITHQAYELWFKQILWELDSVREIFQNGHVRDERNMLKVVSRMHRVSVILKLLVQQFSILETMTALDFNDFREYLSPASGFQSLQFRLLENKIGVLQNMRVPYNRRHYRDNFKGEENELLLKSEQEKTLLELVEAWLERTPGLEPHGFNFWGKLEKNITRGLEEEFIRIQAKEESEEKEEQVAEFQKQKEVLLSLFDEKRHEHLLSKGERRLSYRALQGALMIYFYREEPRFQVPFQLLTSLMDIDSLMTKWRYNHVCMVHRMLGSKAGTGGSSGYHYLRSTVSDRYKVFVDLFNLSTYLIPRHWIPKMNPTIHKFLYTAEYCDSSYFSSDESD
# assay explanation: CHO-K1 cell based TDO assay
# test settings: hTDO cellular assay
Entries and their measured IC50 follow.

Worked set:
1. Nc1sc2ccccc2c1Nc1ccc(F)c(F)c1 :: < 500 nM
2. Cc1cc(-c2nccc3c(Nc4cccc(F)c4)c(N)oc23)ccn1 :: < 500 nM

Q) Output measured IC50 for this item: Nc1oc2cnccc2c1Nc1ccc(Cc2ccccc2)cc1
A) 500 to 2000 nM

Q) Look up IC50 of Nc1oc2c[n+]([O-])ccc2c1Nc1ccc(F)c(Cl)c1 and report it.
A) 500 to 2000 nM

Q) Tell me IC50 reported for Nc1oc2cnccc2c1Nc1ccc(F)c(Cl)c1Cl
A) > 2000 nM

Q) For Nc1oc2c(-c3ccncc3)nc(F)cc2c1Nc1ccc(F)c(F)c1 , write its IC50.
A) 500 to 2000 nM

---

Attribute: IC50
# target desc: Human TDO (hTDO)-transfected CHO-K1 cells (Homo sapiens (Human), UniProt P48775)
# assay explanation: CHO-K1 cell based TDO assay
# test settings: hTDO cellular assay

1. C#Cc1cccc(Nc2c(N)oc3c(C)nccc23)c1 :: 500 to 2000 nM

Q) Output IC50 of Cc1cc(-c2nccc3c(Nc4ccc(F)c(Cl)c4)c(N)oc23)ccn1
A) 500 to 2000 nM

Q) Determine its reported IC50: CCc1cccc(Nc2c(N)oc3cnccc23)c1
A) > 2000 nM

---

# target desc: Human TDO (hTDO)-transfected CHO-K1 cells (Homo sapiens (Human), UniProt P48775)
# assay explanation: CHO-K1 cell based TDO assay
# test settings: hTDO cellular assay
recorded metric: IC50

1) Cc1cc(-c2cccc3c(Nc4ccc(F)cc4)c(N)sc23)ccn1 [Compound 266] :: 500 to 2000 nM
2) Cc1cc(-c2nccc3c(Nc4ccc(F)c(F)c4)c(N)oc23)ccn1 [Compound 198] :: < 500 nM

Okay, next one:
Q) Tell me its IC50 given Nc1oc2cnccc2c1Nc1ccc2c(c1)CCCC2 [Compound 71] as the entry.
A) > 2000 nM

---

# target desc: IDO1 in HeLa cells (Homo sapiens (Human), UniProt P14902)
# Sequence (P14902 whole entry): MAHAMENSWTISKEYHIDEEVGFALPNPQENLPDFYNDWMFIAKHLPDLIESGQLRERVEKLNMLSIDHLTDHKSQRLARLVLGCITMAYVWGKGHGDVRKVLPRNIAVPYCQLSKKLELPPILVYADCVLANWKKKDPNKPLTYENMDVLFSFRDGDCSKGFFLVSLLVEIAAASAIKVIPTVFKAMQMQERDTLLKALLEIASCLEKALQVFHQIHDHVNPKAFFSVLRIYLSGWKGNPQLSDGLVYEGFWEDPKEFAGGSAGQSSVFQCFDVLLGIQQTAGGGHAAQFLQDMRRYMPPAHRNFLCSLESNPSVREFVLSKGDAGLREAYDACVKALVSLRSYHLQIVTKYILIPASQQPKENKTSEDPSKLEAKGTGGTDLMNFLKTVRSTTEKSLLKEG
# assay explanation: HeLa cell based IDO1 assay (IFNγ-induced, KYN in supernatant)
recorded metric: IC50

1. Nc1oc2c(-c3ccncc3)nc(F)cc2c1Nc1ccc(F)c(F)c1 [Compound 188] :: < 200 nM
2. Nc1oc2c(Br)nccc2c1Nc1ccc(F)c(Cl)c1 [Compound 159] :: < 200 nM
3. COc1cc2c(Nc3ccc(F)c(Cl)c3)c(N)oc2c(Br)n1 [Compound 172] :: < 200 nM
4. CCCCCNC(=O)c1cc(-c2nccc3c(Nc4ccc(F)c(Cl)c4)c(N)oc23)ccn1 [Compound 275] :: 200 to 1000 nM
5. Nc1oc2cnc(F)cc2c1Nc1ccc(F)c(Cl)c1 [Compound 181] :: < 200 nM

Let us examine a further case.
Q) # return recorded IC50 for entry Nc1oc2c(-c3ccc4ccccc4c3)nccc2c1Nc1ccc(F)c(Cl)c1 [Compound 247]
A) < 200 nM

---

The entries below are paired with their reported IC50.
# target desc: Human TDO (hTDO)-transfected CHO-K1 cells (Homo sapiens (Human))
# assay explanation: CHO-K1 cell based TDO assay
# test settings: hTDO cellular assay
Counter-ions that a name gives are not always drawn.

Reference set (4 entries):
1. COc1cccc(-c2nccc3c(Nc4ccc(F)c(Cl)c4)c(N)oc23)c1 [Compound 90] :: 500 to 2000 nM
2. COc1cccc(Nc2c(N)sc3ccccc23)c1 [Compound 235] :: < 500 nM
3. CC(C)(C)c1cccc(Nc2c(N)oc3cnccc23)c1 [Compound 61] :: > 2000 nM
4. Nc1sc2ccc(Cl)cc2c1Nc1cccc(C(F)(F)F)c1 [Compound 133, hydrochloride] :: 500 to 2000 nM

Q) Hello, please tell me recorded IC50 for this one: Cc1cc(-c2cccc3c(Nc4ccc(F)c(Cl)c4)c(N)sc23)ccn1 [Compound 240]
A) > 2000 nM

Q) Give IC50 for N#Cc1cccc(Nc2c(N)oc3cnccc23)c1 [Compound 99]
A) > 2000 nM

Q) Give a short answer stating reported IC50 for CC(C)Oc1cc2c(Nc3ccc(F)c(Cl)c3)c(N)oc2c(-c2ccccc2)n1 [Compound 107] .
A) > 2000 nM

Q) Indicate its recorded IC50; the molecule in question is Nc1oc2cnc(Cl)cc2c1Nc1ccc(F)c(Cl)c1 [Compound 177]
A) 500 to 2000 nM

Q) Could you please provide reported IC50 for Nc1sc2ccccc2c1Nc1cccc(C(F)(F)F)c1 [Compound 119] ? Thanks!
A) > 2000 nM

---

These compounds were tested on Human indoleamine 2,3-dioxygenase1 (hIDO1) (Homo sapiens (Human)); IC50 is the recorded read-out.

1. O=C(Nc1oc2cnccc2c1N(C(=O)OCc1ccccc1)c1ccc(F)c(Cl)c1)OCc1ccccc1 :: > 1 µM

Q) # return recorded IC50 for entry COc1cc(Nc2c(N)oc3cnccc23)ccc1Cl
A) > 1 µM

Q) Return the recorded IC50 value; entry: Nc1oc2cnccc2c1Nc1ccc(N2CCOCC2)cc1
A) > 1 µM

Q) Name the recorded IC50 of the item Nc1sc2ccccc2c1Nc1ccc(F)c(Cl)c1 in your answer.
A) < 0.2 µM

Q) Using known records, supply IC50 for COc1cc(Nc2c(N)oc3cnccc23)cc(OC)c1
A) > 1 µM

Q) Fill in IC50 for record COC(=O)c1ccc(-c2nccc3c(Nc4ccc(F)c(Cl)c4)c(N)oc23)cc1
A) < 0.2 µM

---

# target desc: Human TDO (hTDO)-transfected CHO-K1 cells (Homo sapiens (Human))
# assay explanation: CHO-K1 cell based TDO assay
# test settings: hTDO cellular assay
pIC50: −log10 of the molar value.
recorded metric: pIC50

Past entries and their recorded results:
1. Nc1oc2cnccc2c1Nc1cc(Cl)c(F)cc1F :: < 5.70
2. Cn1cc(-c2nccc3c(Nc4ccc(F)c(Cl)c4)c(N)oc23)cn1 :: 5.70 to 6.30
3. C#Cc1cc(Nc2c(N)oc3c(-c4ccccc4)nccc23)ccc1F :: 5.70 to 6.30
4. CC(F)(F)c1cc(Nc2c(N)oc3cnccc23)ccc1F :: < 5.70
5. COc1cc2c(Nc3ccc(F)c(Cl)c3)c(N)oc2c(-c2ccc(C(N)=O)cc2)n1 :: < 5.70

Q) Look up Human TDO (hTDO)-transfected CHO-K1 cells (Homo sapiens (Human)) data: pIC50 of COc1cc2c(Nc3ccc(F)c(Cl)c3)c(N)oc2c(-c2ccc(C#N)cc2)n1 , then report it.
A) < 5.70

Q) Write pIC50 of Nc1sc2ccccc2c1Nc1ccc(F)c(C(F)(F)F)c1 ; system used: Human TDO (hTDO)-transfected CHO-K1 cells (Homo sapiens (Human))
A) < 5.70

Q) Would you please give the reported pIC50 of CC(C)(C)c1cc(Nc2c(N)oc3cnccc23)cc(C(C)(C)C)c1 with Human TDO (hTDO)-transfected CHO-K1 cells (Homo sapiens (Human))?
A) 5.70 to 6.30

Q) Look up Human TDO (hTDO)-transfected CHO-K1 cells (Homo sapiens (Human)) data: pIC50 of Nc1sc2ccccc2c1Nc1ccc(F)cc1 , then report it.
A) < 5.70

Q) Answer briefly: pIC50 recorded on Human TDO (hTDO)-transfected CHO-K1 cells (Homo sapiens (Human)) for Nc1oc2c(Br)nccc2c1Nc1ccc(F)c(Cl)c1
A) > 6.30

Q) Answer briefly: pIC50 recorded on Human TDO (hTDO)-transfected CHO-K1 cells (Homo sapiens (Human)) for Nc1oc2cnc(F)cc2c1Nc1cccc(C(F)(F)F)c1
A) 5.70 to 6.30

Q) Provide the reported pIC50 (system: Human TDO (hTDO)-transfected CHO-K1 cells (Homo sapiens (Human))) for CC(C)(C)NC(=O)c1cc(-c2nccc3c(Nc4ccc(F)c(Cl)c4)c(N)oc23)ccn1
A) < 5.70

Q) GET pIC50 | system: Human TDO (hTDO)-transfected CHO-K1 cells (Homo sapiens (Human)) | item: Nc1sc2ccc(Cl)cc2c1Nc1ccc(F)c(C(F)(F)F)c1
A) < 5.70

Q) Please report the measured pIC50 for Nc1oc2cnccc2c1Nc1ccc(OC(F)(F)F)cc1 tested on Human TDO (hTDO)-transfected CHO-K1 cells (Homo sapiens (Human)).
A) 5.70 to 6.30

Q) Write down the reported pIC50 (system: Human TDO (hTDO)-transfected CHO-K1 cells (Homo sapiens (Human))) of C#Cc1cccc(Nc2c(N)oc3cnccc23)c1
A) 5.70 to 6.30

---

Below, each entry is listed alongside its reported IC50.
# target desc: IDO1 in HeLa cells (Homo sapiens (Human))
# assay explanation: HeLa cell based IDO1 assay (IFNγ-induced, KYN in supernatant)

Consider the worked cases shown below.
1) Nc1oc2c(-c3ccncc3)nccc2c1Nc1cccc(C(F)(F)F)c1 [Compound 203] :: < 200 nM
2) Cc1cc(-c2nccc3c(Nc4cccc(Cl)c4)c(N)oc23)ccn1 [Compound 238] :: < 200 nM
3) CC(C)(C)NC(=O)c1cc(-c2nccc3c(Nc4ccc(F)c(Cl)c4)c(N)oc23)ccn1 [Compound 251] :: < 200 nM

Q) Consider the molecule CNC(=O)c1cc(-c2nccc3c(Nc4cccc(Cl)c4)c(N)oc23)ccn1 [Compound 225] and give its recorded IC50.
A) < 200 nM

Q) Please look at this molecule and report its IC50: N#Cc1nccc2c(Nc3cc(F)cc(F)c3)c(N)oc12 [Compound 186]
A) > 1000 nM

Q) Give reported IC50 value for N#Cc1cccc(Nc2c(N)oc3cnccc23)c1 [Compound 99]
A) < 200 nM

Q) Kindly indicate its recorded IC50. Item: Nc1oc2cnccc2c1Nc1cccc(I)c1 [Compound 20]
A) < 200 nM

Q) Determine its reported IC50: Cc1cc(-c2nccc3c(Nc4ccc(F)cc4)c(N)oc23)ccn1 [Compound 208]
A) < 200 nM

Q) Let me know recorded IC50 for Nc1oc2cnccc2c1Nc1ccc(F)cc1 [Compound 5] , thanks.
A) < 200 nM

Q) Hello, please tell me recorded IC50 for this one: CCc1cc(-c2nccc3c(Nc4ccc(F)c(Cl)c4)c(N)oc23)ccn1 [Compound 262]
A) < 200 nM
